The measured values listed here are drawn from patent US20180185504A1.

Molecular target: T1, hPRLR.mFc (soluble dimeric human PRLR) (human)
T1 construct: dimeric PRLR construct
T1 chain: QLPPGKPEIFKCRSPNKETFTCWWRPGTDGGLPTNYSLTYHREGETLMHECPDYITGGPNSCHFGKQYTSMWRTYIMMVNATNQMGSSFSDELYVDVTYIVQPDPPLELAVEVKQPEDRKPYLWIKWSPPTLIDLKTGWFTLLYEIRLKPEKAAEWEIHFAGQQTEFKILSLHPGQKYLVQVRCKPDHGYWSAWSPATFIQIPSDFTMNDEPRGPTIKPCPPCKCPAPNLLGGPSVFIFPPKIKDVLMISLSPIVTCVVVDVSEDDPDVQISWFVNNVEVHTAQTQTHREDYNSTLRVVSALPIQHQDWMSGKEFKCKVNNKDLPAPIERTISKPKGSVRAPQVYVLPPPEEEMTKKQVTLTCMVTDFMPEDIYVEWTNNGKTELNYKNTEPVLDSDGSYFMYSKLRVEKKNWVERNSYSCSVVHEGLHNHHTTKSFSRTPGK
Test: SPR Biacore, 25 C, mAb capture
reported-endpoint: pKd
pKd here: minus log base 10 of the concentration, concentration in moles per litre.

Examples with their reported pKd follow.
binder	pKd
H1H6797P (antibody, human IgG1, V domains shown, Human IgG1 Fc (H1H)) VH: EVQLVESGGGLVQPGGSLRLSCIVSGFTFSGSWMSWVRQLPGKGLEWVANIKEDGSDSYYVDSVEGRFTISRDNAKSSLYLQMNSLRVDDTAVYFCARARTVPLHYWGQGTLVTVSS VL: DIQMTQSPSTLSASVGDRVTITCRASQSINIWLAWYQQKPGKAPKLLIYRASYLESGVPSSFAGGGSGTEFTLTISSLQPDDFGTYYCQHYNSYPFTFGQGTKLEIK	9.91
H1H6793P (antibody, human IgG1, V domains shown, Human IgG1 Fc (H1H)) VH: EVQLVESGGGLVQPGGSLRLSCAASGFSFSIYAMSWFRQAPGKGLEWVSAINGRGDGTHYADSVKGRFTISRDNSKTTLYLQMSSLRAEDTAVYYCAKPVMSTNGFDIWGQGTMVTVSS VL: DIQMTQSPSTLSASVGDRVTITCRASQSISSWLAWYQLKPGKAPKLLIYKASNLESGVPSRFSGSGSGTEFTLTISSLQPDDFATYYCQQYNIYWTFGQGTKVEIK	9.48

Please fill in: pKd reported for H1H6960N (antibody, human IgG1, V domains shown, Tested with human IgG1 Fc (H1H); also called H2M6960N) VH: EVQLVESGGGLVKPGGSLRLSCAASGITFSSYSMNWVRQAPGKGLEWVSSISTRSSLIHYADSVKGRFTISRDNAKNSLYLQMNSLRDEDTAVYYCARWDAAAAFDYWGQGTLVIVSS VL: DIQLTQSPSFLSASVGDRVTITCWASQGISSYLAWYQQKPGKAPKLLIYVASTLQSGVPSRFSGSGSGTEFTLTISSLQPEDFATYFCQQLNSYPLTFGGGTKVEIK = 9.85
